systemTested: α4β1 (Homo sapiens, UniProt P05556+P13612)
Construct: Ramos Cell Adhesion Assay (α4β1 Mediated Adhesion/VCAM-1); endogenous in cells; host or cells: Ramos cells
Sequence (P13612 34-1032): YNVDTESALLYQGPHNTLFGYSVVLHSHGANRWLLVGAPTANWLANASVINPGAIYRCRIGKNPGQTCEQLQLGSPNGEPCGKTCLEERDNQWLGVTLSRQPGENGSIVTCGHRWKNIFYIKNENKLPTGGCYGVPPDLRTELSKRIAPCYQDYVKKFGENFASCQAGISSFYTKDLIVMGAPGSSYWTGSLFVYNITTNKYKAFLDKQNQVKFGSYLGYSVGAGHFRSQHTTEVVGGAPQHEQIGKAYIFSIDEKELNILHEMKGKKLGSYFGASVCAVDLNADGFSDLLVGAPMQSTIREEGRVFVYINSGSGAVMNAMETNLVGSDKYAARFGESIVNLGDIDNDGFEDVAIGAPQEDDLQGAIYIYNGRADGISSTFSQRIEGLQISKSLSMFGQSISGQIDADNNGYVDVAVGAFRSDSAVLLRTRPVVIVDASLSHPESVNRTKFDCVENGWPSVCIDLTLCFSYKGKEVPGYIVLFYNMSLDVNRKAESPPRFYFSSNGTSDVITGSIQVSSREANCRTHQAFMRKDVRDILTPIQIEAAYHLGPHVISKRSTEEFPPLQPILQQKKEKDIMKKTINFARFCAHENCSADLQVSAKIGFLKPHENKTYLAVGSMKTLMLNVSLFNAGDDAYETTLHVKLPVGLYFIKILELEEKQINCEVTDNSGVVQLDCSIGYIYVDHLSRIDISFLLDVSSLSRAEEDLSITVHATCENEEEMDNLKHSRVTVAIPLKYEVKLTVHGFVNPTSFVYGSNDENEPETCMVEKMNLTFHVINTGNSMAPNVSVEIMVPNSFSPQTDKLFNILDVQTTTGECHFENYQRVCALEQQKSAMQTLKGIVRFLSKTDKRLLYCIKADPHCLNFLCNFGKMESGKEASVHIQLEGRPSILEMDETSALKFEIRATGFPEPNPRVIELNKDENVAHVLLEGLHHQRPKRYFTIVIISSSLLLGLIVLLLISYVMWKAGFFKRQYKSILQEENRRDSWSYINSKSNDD
Sequence (P05556 21-798): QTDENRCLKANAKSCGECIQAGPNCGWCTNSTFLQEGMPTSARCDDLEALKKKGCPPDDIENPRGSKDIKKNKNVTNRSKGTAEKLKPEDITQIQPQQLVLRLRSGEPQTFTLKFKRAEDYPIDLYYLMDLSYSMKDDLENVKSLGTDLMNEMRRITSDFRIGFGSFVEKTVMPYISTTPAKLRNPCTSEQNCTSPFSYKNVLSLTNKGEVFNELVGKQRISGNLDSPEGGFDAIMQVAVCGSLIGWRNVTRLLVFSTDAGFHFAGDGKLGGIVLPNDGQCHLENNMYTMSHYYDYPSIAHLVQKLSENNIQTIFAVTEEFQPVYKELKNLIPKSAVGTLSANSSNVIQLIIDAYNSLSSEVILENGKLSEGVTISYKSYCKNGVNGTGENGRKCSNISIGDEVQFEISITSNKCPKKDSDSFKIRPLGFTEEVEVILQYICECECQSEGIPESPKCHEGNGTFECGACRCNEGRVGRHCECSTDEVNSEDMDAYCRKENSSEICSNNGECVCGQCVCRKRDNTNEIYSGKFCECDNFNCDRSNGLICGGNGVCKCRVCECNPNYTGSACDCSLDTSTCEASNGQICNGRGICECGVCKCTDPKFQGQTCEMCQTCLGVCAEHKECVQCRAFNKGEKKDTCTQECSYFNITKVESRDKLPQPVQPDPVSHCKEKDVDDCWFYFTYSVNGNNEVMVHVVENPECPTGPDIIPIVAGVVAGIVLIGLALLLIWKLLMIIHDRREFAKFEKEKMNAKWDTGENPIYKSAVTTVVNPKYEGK
assay: Ramos Cell Adhesion Assay (α4β1 Mediated Adhesion/VCAM-1)
Format: cell-based
measurementContext: Ramos cell adhesion to hVCAM-1; read-out: α4β1 IC50
readout: IC50 (nM)

A: O=C(N[C@@H](Cc1ccc(-c2c(-n3ncc4ccccc43)cnn(CCO)c2=O)cc1)C(=O)O)c1c(Cl)cccc1Cl
B: COc1cnn(CC(N)=O)c(=O)c1-c1ccc(C[C@H](NC(=O)c2c(Cl)cccc2Cl)C(=O)O)cc1
C: CN[C@H](C(=O)N[C@@H](Cc1ccc(-c2c(OC)cnn(CCN3CCOCC3)c2=O)cc1)C(=O)O)[C@@H](C)OCc1ccccc1
Req: Using measured IC50, arrange the compounds from above in descending sequence. Form entry: ranked labels (order as requested).
Resp: C, A, B
(C: 1490 nM, A: 1040 nM, B: 307 nM)

* * *

systemTested: human α4β7 integrin (Homo sapiens, UniProt P13612+P26010)
Construct: expressed in transfected cells; host or cells: K562 cells, stably transfected
Sequence (P13612 34-1032): as the sequence (P13612 34-1032) above
Sequence (P26010 20-798): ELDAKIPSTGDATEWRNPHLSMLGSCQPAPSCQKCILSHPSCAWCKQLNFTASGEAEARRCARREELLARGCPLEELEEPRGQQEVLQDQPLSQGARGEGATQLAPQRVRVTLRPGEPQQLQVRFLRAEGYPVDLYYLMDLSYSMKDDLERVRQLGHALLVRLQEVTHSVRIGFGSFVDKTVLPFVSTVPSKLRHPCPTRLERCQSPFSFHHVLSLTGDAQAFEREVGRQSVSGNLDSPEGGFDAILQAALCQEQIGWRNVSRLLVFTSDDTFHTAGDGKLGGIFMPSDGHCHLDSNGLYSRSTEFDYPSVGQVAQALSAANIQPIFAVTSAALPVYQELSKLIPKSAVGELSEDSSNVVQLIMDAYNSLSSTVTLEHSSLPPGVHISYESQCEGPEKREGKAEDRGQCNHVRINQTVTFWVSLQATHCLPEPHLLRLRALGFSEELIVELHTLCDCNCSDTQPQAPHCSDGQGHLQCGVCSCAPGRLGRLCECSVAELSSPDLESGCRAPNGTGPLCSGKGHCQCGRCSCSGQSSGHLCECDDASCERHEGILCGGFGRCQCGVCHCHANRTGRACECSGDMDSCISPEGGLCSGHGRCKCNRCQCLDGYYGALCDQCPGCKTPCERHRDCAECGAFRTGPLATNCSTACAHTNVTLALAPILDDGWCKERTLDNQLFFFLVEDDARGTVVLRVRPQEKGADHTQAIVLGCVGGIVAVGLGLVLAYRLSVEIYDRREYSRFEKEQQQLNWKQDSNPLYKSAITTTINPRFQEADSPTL
assay: α4β7-K562 Cell Adhesion Assay (α4β7 Mediated Adhesion/MAdCAM-1)
Format: cell-based
measurementContext: α4β7-K562 cell adhesion to hMAdCAM-1; read-out: α4β7 IC50
pIC50: −log10 of the molar value.
readout: pIC50

>  <molecule>
COc1cnn(C)c(=O)c1-c1ccc(C[C@H](NC(=O)OCc2c(Cl)cccc2Cl)C(=O)O)cc1

>  <pIC50>
5.73

$$$$
>  <molecule>
CN1CCC(Oc2cnn(CCO)c(=O)c2-c2ccc(C[C@H](NC(=O)c3c(Cl)cccc3Cl)C(=O)O)cc2)C1 (stereo partly drawn)

>  <pIC50>
7.59

$$$$
>  <molecule>
COc1cnn(C)c(=O)c1-c1ccc(C[C@H](NC(=O)OCc2cccs2)C(=O)O)cc1

>  <pIC50>
5.84

$$$$
>  <molecule>
Cn1ncc(OC(F)F)c(-c2ccc(C[C@H](NC(=O)c3c(Cl)cccc3Cl)C(=O)O)cc2)c1=O

>  <pIC50>
7.07

$$$$
>  <molecule>
Cn1ncc(OCC(F)(F)F)c(-c2ccc(C[C@H](NC(=O)c3c(Cl)cccc3Cl)C(=O)O)cc2)c1=O

>  <pIC50>
8.05

$$$$

I: COc1cnn(C)c(=O)c1-c1ccc(C[C@H](NC(=O)C2(NC(C)=O)CC2)C(=O)O)cc1
II: Cn1ncc(OCCN2CCOCC2)c(-c2ccc(C[C@H](NC(=O)c3c(Cl)cccc3Cl)C(=O)O)cc2)c1=O
Req: Smaller pIC50 value, I vs II ? Lab log: write the label of the selected item as the result.
Resp: I

1: COc1cnn(CCN2CCOCC2)c(=O)c1-c1ccc(C[C@H](NC(=O)c2c(Cl)cccc2Cl)C(=O)O)cc1
2: Cn1ncc(O)c(-c2ccc(C[C@H](NC(=O)c3c(Cl)cncc3Cl)C(=O)O)cc2)c1=O
3: COc1cnn(C)c(=O)c1-c1ccc(C[C@H](NC(=O)C2(n3c(C)ccc3C)CC2)C(=O)O)cc1
4: COc1cnn(C)c(=O)c1-c1ccc(C[C@H](NC(=O)C23CCC(CC2)CN3C(=O)CCc2cnc[nH]2)C(=O)O)cc1
Req: Sort by pIC50, descending. Please list the labels in the order you were asked to rank them.
Resp: 1, 2, 4, 3
(1: 8.70, 2: 7.68, 4: 6.93, 3: 6.64)

A: COc1cnn(C)c(=O)c1-c1ccc(C[C@H](NC(=O)C2C(C)(C)C2(C)C)C(=O)O)cc1
B: COc1cnn(C)c(=O)c1-c1ccc(C[C@H](NC(=O)C2(C(N)=O)CC2)C(=O)O)cc1
Req: Endpoint returns whichever of A and B has the numerically higher pIC50. Bench note: the answer is the label of the chosen record.
Resp: B

a: O=C(N[C@@H](Cc1ccc(-c2c(O)cn[nH]c2=O)cc1)C(=O)O)c1c(Cl)cccc1Cl
b: COc1cnn(C)c(=O)c1-c1ccc(C[C@H](NC(=O)OC2CCCCC2)C(=O)O)cc1
Req: // returns a or b , whichever has the lower pIC50 Label of pick, please.
Resp: b
(b: 5.56, a: 6.31)
